assay: qHTS assay to test for compound auto fluorescence at 460 nm (blue) in HEK293 cell free culture (AID 720681); conditions: cell-free medium, autofluorescence 405/460 nm (blue); series mostly up to 91.3 µM; also: % is scaled to controls: 0 for no effect and ±100 for the full control effect
Active and inactive are the calls of the source. Calls follow the shape of the dose curve; as a rule, active = well fitted curve in the direction sought with a large enough effect in the repeat runs; inconclusive = weak or mixed curves; inactive = flat fitted curve, though single readings scatter.
measurement.type: fluorescence, % of fluorescent control

molecule=CC(N)=S assay_value=inactive
molecule="CCN(CC)C(C)C(=O)c1ccccc1 (stereo not given)" assay_value=inactive
molecule=ClCC(Cl)Cl assay_value=inactive
molecule=CNNC assay_value=inactive
molecule="COP(N)(=S)Oc1ccccc1C(=O)OC(C)C (stereo not given)" assay_value=inactive
molecule="Fc1ccc(C2(Cn3cncn3)OC2c2ccccc2Cl)cc1 (stereo not given)" assay_value=inactive
molecule=C[C@]12CC[C@H]3[C@@H](CC=C4C[C@@H](O)CC[C@@]43C)[C@@H]1CC[C@@H]2O assay_value=inactive
molecule=CCCCP(CCCC)CCCC assay_value=inactive

# batch: return fluorescence, % of fluorescent control for each of the 2 molecules below
1. O=C(CCCN1CCC(n2c(=O)[nH]c3ccccc32)CC1)c1ccc(F)cc1
2. CCCCC(=O)Cl

*A*
1. 0.0625% [at 18.6 µM] (inactive)
2. inactive

# batch: return fluorescence, % of fluorescent control for each of the 8 molecules below
1. CCOP(=S)(OCC)Oc1cc(-c2ccccc2)on1
2. CC(C=O)Cc1ccc2c(c1)OCO2 (stereo not given)
3. O=C(Nc1ccccc1)N(Cc1ccc(Cl)cc1)C1CCCC1
4. CC(=O)CCc1ccc2c(c1)OCO2
5. CC1=C(C(=O)Nc2ccccc2)S(=O)(=O)CCO1
6. Nc1cnn(-c2ccccc2)c(=O)c1Cl
7. CCOC(=O)/C=C(C)/C=C/C[C@@H](C)CCCC(C)C
8. C#CCN1C(=O)COc2cc(F)c(N3C(=O)C4=C(CCCC4)C3=O)cc21

*A*
1. inactive
2. inactive
3. inactive
4. inactive
5. inactive
6. inactive
7. inactive
8. inactive

# batch: return fluorescence, % of fluorescent control for each of the 5 molecules below
1. COc1cc(OC)nc(NC(=O)NS(=O)(=O)c2ncccc2C(=O)N(C)C)n1
2. Cc1ncc(CNC(=O)N(CCCl)N=O)c(N)n1
3. CNC(=O)N(C)c1nc2ccccc2s1
4. COCC(=O)N(c1c(C)cccc1C)N1CCOC1=O
5. CCC(C)(C)c1cc(-n2nc3ccccc3n2)c(O)c(C(C)(C)CC)c1

*A*
1. inactive
2. inactive
3. inactive
4. inactive
5. inactive

# batch: return fluorescence, % of fluorescent control for each of the 7 molecules below
1. CC(C)NCC(O)c1ccc(N)c(C#N)c1 (stereo not given)
2. CCC/C(=N\OCC)C1=C(O)CC(CC(C)SCC)CC1=O (stereo not given)
3. COC(=O)c1ccccc1S(=O)(=O)NC(=O)N(C)c1nc(C)nc(OC)n1
4. COc1cc(OC)nc(NC(=O)NS(=O)(=O)c2ncccc2OCC(F)(F)F)n1
5. Oc1c(Cl)cccc1Cl
6. CC(=O)CC(c1ccc(Cl)cc1)c1c(O)c2ccccc2oc1=O (stereo not given)
7. CC(C)COP(=O)(OCC(C)C)OCC(C)C

*A*
["inactive", "inactive", "inactive", "inactive", "inactive", "inactive", "inactive"]

# batch: return fluorescence, % of fluorescent control for each of the 5 molecules below
1. c1cc[c]([Hg][c]2ccccc2)cc1
2. CNC(=O)Oc1cccc(C(C)C)c1
3. C=CCC1=C(C)[C@@H](OC(=O)[C@@H]2[C@@H](C=C(C)C)C2(C)C)CC1=O
4. Nc1ccccc1Cl
5. CCCCc1ccc(O)cc1

*A*
["inactive", "inactive", "inactive", "inactive", "inactive"]

* * *

experiment: qHTS assay to identify small molecule agonists of the hypoxia (HIF-1) signaling pathway - cell viability counter screen (AID 1224844); details: HRE-bla ME-180 viability, CellTiter-Glo luminescence, 17 h; series mostly up to 76.8 µM; also: nearly all actives have a fitted effect of over 50% in size
Inconclusive results are not listed. Calls of active or inactive are those of the source. The call rests on the fitted dose curve.
Respond using exactly one of the listed classes: TRUE for active, FALSE for inactive

compound="COC(=O)C(C)Oc1ccc(Oc2ccc(Cl)cc2Cl)cc1 (configuration not stated)" class_name=FALSE

*Q* Dear all, I need the recorded test outcome for C1CCC(C2CCCCC2)CC1 , thank you.
*A* TRUE

*Q* Dear all, I need the recorded test outcome for c1cc[c]([Hg][c]2ccccc2)cc1 , thank you.
*A* TRUE

* * *

test: qHTS assay to test for compound auto fluorescence at 590 nm (red) in HepG2 cells (AID 720674); settings: HepG2 autofluorescence, red 540/590 nm, 1 h; series mostly up to 91.3 µM; also: % is scaled to controls: 0 for no effect and ±100 for the full control effect
Active and inactive are the calls of the source. The call rests on the fitted dose curve; in most records, active means well fitted curve in the direction sought with a large enough effect in the repeat runs; inconclusive means weak or mixed curves; inactive means flat fitted curve, though single readings scatter.
measurement.type: fluorescence, relative to Rose Bengal

molecule=C[N+](=O)[O-] measurement_type="fluorescence, relative to Rose Bengal" assay_value=inactive
molecule=CCOP(=S)(OCC)Oc1cc(-c2ccccc2)on1 measurement_type="fluorescence, relative to Rose Bengal" assay_value=inactive
molecule=CSc1nc(N=[N+]=[N-])nc(NC(C)C)n1 measurement_type="fluorescence, relative to Rose Bengal" assay_value=inactive
molecule=CCCCP(CCCC)CCCC measurement_type="fluorescence, relative to Rose Bengal" assay_value=inactive
molecule="CCOP(=S)(Oc1cnc(C(C)(C)C)nc1)OC(C)C (centres undefined)" measurement_type="fluorescence, relative to Rose Bengal" assay_value=inactive
molecule=C#CCN1C(=O)COc2cc(F)c(N3C(=O)C4=C(CCCC4)C3=O)cc21 measurement_type="fluorescence, relative to Rose Bengal" assay_value=inactive
molecule=O=[N+]([O-])c1cccc(O)c1 measurement_type="fluorescence, relative to Rose Bengal" assay_value=inactive
molecule=CCC1(c2ccccc2)C(=O)NC(=O)NC1=O measurement_type="fluorescence, relative to Rose Bengal" assay_value=inactive
molecule=ClCCOCOCCCl measurement_type="fluorescence, relative to Rose Bengal" assay_value=inactive
molecule=Cc1nnc2n1-c1sc(CCC(=O)N3CCOCC3)cc1C(c1ccccc1Cl)=NC2 measurement_type="fluorescence, relative to Rose Bengal" assay_value=inactive

# batch: return fluorescence, relative to Rose Bengal for each of the 3 molecules below
1. CC(C)[N+](=O)[O-]
2. Cc1ncc2n1-c1ccc(Cl)cc1C(c1ccccc1F)=NC2
3. CCS(=O)(=O)CCSP(=O)(OC)OC

*A*
["inactive", "inactive", "inactive"]

*Q* So what does the record say about fluorescence, relative to Rose Bengal for COC(=O)COc1ccc(Cl)cc1Cl ?
*A* inactive

* * *

assay: A CellTox Green Cytotoxicity Assay to monitor cytotoxicity in HepG2 cells - 24 hour (AID 1224878); conditions: CellTox Green fluorescence; series mostly up to 76.8 µM; also: nearly all actives have a fitted effect of over 45% in size; as to Cytotoxicity: % is scaled to controls: 0 for no effect and ±100 for the full control effect
Inconclusive results are not listed. Activity calls are given as the source filed them. Calls come from the whole dose curve; as a rule, active = well fitted activation curve with a large enough effect in the repeat runs; inconclusive = weak or mixed curves; inactive = flat fitted curve, though single readings scatter.
Respond using exactly one of the listed classes: yes (active), no (inactive)

compound=ClCC(Cl)(Cl)Cl class_name=no
compound=CNNC class_name=no
compound="N#CC(CCc1ccc(Cl)cc1)(Cn1cncn1)c1ccccc1 (stereo not drawn)" class_name=yes
compound="CC(CCc1ccccc1)NC(C)C(O)c1ccc(O)cc1 (stereo not drawn)" class_name=no
compound="O=C1OC(CCN2CCCCC2)OC1(c1ccccc1)c1ccccc1 (stereo not drawn)" class_name=no

*Q* Dear all, I need the recorded test outcome for CNC(=O)Oc1cccc(C(C)C)c1 , thank you.
*A* no

*Q* Dear all, I need the recorded test outcome for O=C1OC(=O)C2C1C1(Cl)C(Cl)=C(Cl)C2(Cl)C1(Cl)Cl (stereo not drawn) , thank you.
*A* no

*Q* Dear all, I need the recorded test outcome for C[C@]12CC[C@H]3[C@@H](CC=C4C[C@@H](O)CC[C@@]43C)[C@@H]1CC[C@@H]2O , thank you.
*A* no

*Q* Dear all, I need the recorded test outcome for CNC(=O)Oc1ccc(N(C)C)c(C)c1 , thank you.
*A* no

*Q* Dear all, I need the recorded test outcome for OCCSCSCCO , thank you.
*A* no

*Q* Dear all, I need the recorded test outcome for COc1ccc2c(c1OC)CN1CCc3cc4c(cc3C1C2)OCO4 (stereo not drawn) , thank you.
*A* no

*Q* Dear all, I need the recorded test outcome for CN1C(=S)CN=C(c2ccccc2)c2cc(Cl)ccc21 , thank you.
*A* no

*Q* Dear all, I need the recorded test outcome for CCCCOC(=O)c1ccccc1C(=O)O , thank you.
*A* no

* * *

assay: qHTS assay to identify small molecule antagonists of the estrogen receptor alpha (ER-alpha) signaling pathway using the BG1 cell line in the presence of 0.1 nM 17-beta-estradiol - cell viability counter screen (AID 1259241); conditions: VM7Luc4E2 (BG1) viability, CellTiter-Fluor protease, 22 h, 0.1 nM estradiol agonist added; series mostly up to 92.4 µM; also: % is scaled to controls: 0 for no effect and ±100 for the full control effect; nearly all actives have a fitted effect of over 40% in size
Results filed as inconclusive are left out. Active and inactive are the calls of the source. The call rests on the fitted dose curve; in most records, active means well fitted cell-killing curve with a large enough effect in the repeat runs; inconclusive means weak or mixed curves, or effect the other way; inactive means flat fitted curve, though single readings scatter.
measurement.type: activity change, negative = cytotoxicity

compound=Fc1cc(Br)ccc1CBr measurement_type="activity change, negative = cytotoxicity" assay_value=inactive
compound=CC1(C)C(=O)NC(=O)NC1=O measurement_type="activity change, negative = cytotoxicity" assay_value=inactive
compound=OC(c1ccccc1)(c1ccccc1)C1CCNCC1 measurement_type="activity change, negative = cytotoxicity" assay_value=inactive
compound=COc1ncc(F)c2nc(S(=O)(=O)Nc3c(F)cccc3F)nn12 measurement_type="activity change, negative = cytotoxicity" assay_value=inactive
compound="O=C1OC(=O)C2C1C1(Cl)C(Cl)=C(Cl)C2(Cl)C1(Cl)Cl (stereo not given)" measurement_type="activity change, negative = cytotoxicity" assay_value=inactive

# batch: return activity change, negative = cytotoxicity for each of the 8 compounds below
1. ClCC(Cl)(Cl)Cl
2. COc1ccc(C(=O)N2CCCC2=O)cc1
3. CCC(C)(C)c1cc(-n2nc3ccccc3n2)c(O)c(C(C)(C)CC)c1
4. Fc1ccc(C2(Cn3cncn3)OC2c2ccccc2Cl)cc1 (stereo not given)
5. CCOP(=S)(Oc1cnc(C(C)(C)C)nc1)OC(C)C (stereo not given)
6. CC1CCC(=O)O1 (stereo not given)
7. N#Cc1c(Cl)cccc1Cl
8. Cc1ncc(CNC(=O)N(CCCl)N=O)c(N)n1

*A*
1. inactive
2. inactive
3. inactive
4. inactive
5. inactive
6. inactive
7. inactive
8. inactive

# batch: return activity change, negative = cytotoxicity for each of the 8 compounds below
1. OC(c1ccc(F)cc1)(c1cncnc1)c1ccccc1Cl (stereo not given)
2. CNC(=O)Oc1ccc(N(C)C)c(C)c1
3. NC(=S)C(N)=S
4. CNC(=O)N(C)c1nc2ccccc2s1
5. [O]=[Cd]
6. CC(=O)C(Cl)Cl
7. CN(N=O)C(N)=O
8. C[C@]12CC[C@H]3[C@@H](CCC4=CC(=O)CC[C@@]43C)[C@@H]1CC[C@@H]2C(=O)O

*A*
inactive
inactive
inactive
inactive
inactive
inactive
inactive
inactive

# batch: return activity change, negative = cytotoxicity for each of the 8 compounds below
1. O=[N+]([O-])c1cccc(O)c1
2. ClCC(Cl)Cl
3. CC(=O)[C@H]1CC[C@H]2[C@@H]3CC[C@H]4C[C@H](O)CC[C@]4(C)[C@H]3C(=O)C[C@]12C
4. CCOP(=S)(OCC)Oc1ncn(-c2ccccc2)n1
5. O=C(NCO)NCO
6. CCC1(c2ccccc2)C(=O)NC(=O)NC1=O
7. CCOP(=S)(OCC)SCSc1ccc(Cl)cc1
8. N#CCNCC#N

*A*
inactive
inactive
inactive
inactive
inactive
inactive
inactive
inactive

*Q* So what does the record say about activity change, negative = cytotoxicity for CCCCOC(=O)[C@@H](C)Oc1ccc(Oc2ccc(C#N)cc2F)cc1 ?
*A* inactive
